Entries annotated with measured EC50, cAMP
Target: human GLP-1 receptor (human, UniProt P43220 24-463)
Experiment: cell-based or functional assay

Below, each entry is followed by its recorded EC50, cAMP result.
>  <BINDER>
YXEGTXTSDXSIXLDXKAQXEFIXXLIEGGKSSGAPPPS (Aib2, αMeF(2F)6, 4Pal10, αMeL13, Orn16, Aib20, D-Glu24, αMeY25, K17 and K31: K((εK)-(γ-Glu)-(γ-Glu)-CO-(CH2)12-CO2H), C-terminal NH2) [Example 39]

>  <READING>
0.358 nM

$$$$
>  <BINDER>
YXEGTXTSDXSIXLDXKAQXEXIKXLIEGGPSSGAPPPS (Aib2, αMeF(2F)6, 4Pal10, αMeL13, Orn16, Aib20, αMeF22, αMeF25, K17 and K24: K(AEEA2-(γ-Glu)-CO-(CH2)12-CO2H), C-terminal NH2) [Example 84]

>  <READING>
5.27 nM

$$$$
>  <BINDER>
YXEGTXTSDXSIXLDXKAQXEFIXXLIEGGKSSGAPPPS (Aib2, αMeF(2F)6, 4Pal10, αMeL13, Orn16, Aib20, D-Glu24, αMeY25, K17 and K31: K(AEEA2-(γ-Glu)-(8-(4-carboxyphenoxy)octanoyl)), C-terminal NH2) [Example 126]

>  <READING>
1.69 nM

$$$$
>  <BINDER>
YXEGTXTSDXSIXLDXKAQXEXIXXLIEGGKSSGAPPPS (Aib2, αMeF(2F)6, 4Pal10, αMeL13, Orn16, Aib20, 1Nal22, D-Glu24, αMeY25, K17 and K31: K(AEEA2-(γ-Glu)-CO-(CH2)12-CO2H), C-terminal NH2) [Example 66]

>  <READING>
0.355 nM

$$$$
>  <BINDER>
YXEGTXTSDXSIXLDXKAQXGFIXXLIEGGKSSGAPPPS (Aib2, αMeF(2F)6, 4Pal10, αMeL13, Orn16, Aib20, D-Glu24, αMeY25, K17 and K31: K(AEEA2-(γ-Glu)-CO-(CH2)12-CO2H), C-terminal NH2) [Example 103]

>  <READING>
2.1 nM

$$$$

Ask: What value of measured EC50, cAMP is listed for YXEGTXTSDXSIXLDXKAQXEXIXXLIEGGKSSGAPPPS (Aib2, αMeF(2F)6, Ac5c10, αMeL13, Orn16, Aib20, αMeF22, D-Glu24, αMeY25, K17 and K31: K(AEEA2-(γ-Glu)-CO-(CH2)12-CO2H), C-terminal NH2) [Example 94] ?
Reply: 2.1 nM
